Recorded values, source ChEMBL document CHEMBL3425430.

- Study system: Transient receptor potential cation channel subfamily V member 1 (Homo sapiens)
- Sequence (Q8NER1 whole entry): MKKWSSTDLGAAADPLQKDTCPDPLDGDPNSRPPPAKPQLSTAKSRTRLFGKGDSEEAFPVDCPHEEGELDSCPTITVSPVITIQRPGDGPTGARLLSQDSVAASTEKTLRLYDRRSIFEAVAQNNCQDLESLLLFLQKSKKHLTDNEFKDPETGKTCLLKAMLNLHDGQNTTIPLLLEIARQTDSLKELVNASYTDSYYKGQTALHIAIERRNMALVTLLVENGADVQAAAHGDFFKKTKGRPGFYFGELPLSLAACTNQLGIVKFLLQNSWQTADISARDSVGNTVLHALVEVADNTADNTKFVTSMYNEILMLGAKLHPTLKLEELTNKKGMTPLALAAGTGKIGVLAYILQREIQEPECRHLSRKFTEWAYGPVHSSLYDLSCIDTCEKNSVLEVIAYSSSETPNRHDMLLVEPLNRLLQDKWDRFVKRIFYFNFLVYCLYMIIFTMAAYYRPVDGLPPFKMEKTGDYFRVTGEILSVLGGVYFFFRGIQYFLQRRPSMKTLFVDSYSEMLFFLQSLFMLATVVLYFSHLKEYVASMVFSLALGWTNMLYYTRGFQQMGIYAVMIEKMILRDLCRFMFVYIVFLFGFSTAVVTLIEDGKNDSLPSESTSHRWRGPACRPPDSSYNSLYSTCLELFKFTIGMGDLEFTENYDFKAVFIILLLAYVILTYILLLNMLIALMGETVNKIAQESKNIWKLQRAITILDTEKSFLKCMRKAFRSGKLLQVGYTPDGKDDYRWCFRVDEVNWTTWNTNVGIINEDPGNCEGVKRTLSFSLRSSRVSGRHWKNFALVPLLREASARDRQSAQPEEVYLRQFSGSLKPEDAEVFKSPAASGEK
- Experimental details: Antagonist activity at human TRPV1 expressed in CHO cells assessed as inhibition of 45 degC heat-induced activation by FLIPR assay
pIC50: −log10 of the molar value.
Quantity measured: pIC50

{"Compound": "Cc1cccc(C(C(=O)NCc2ccc(C(F)(F)F)nc2N2CCC(C)CC2)c2ccc(NS(C)(=O)=O)c(F)c2)c1 (stereo unspecified)", "Quantity measured": "pIC50", "Numeric value": 7.44}

###

- Study system: Transient receptor potential cation channel subfamily V member 1 (Homo sapiens)
- Experimental details: Antagonist activity at human TRPV1 expressed in CHO cells assessed as inhibition of N-arachidonoyl dopamine-induced activation by FLIPR assay
- Assay type: cell-based

{"Molecule": "Cc1cccc(C(C(=O)NCc2ccc(C(F)(F)F)nc2N2CCC(C)CC2)c2ccc(NS(C)(=O)=O)c(F)c2)c1 (stereo unspecified)", "Ki, nM": 0.25}

###

- Study system: Transient receptor potential cation channel subfamily V member 1 (Homo sapiens)
- Experimental details: Antagonist activity at human TRPV1 expressed in CHO cells assessed as inhibition of capsaicin-induced activation by FLIPR assay
- Type: cell-based
- Test context: read-out: Ki
pKi: −log10 of the molar value.
The compounds listed here are annotated with their pKi.
Quantity measured: pKi

{"Compound": "CS(=O)(=O)Nc1ccc(C(C(=O)NCc2ccc(C(F)(F)F)nc2SC2CCCCC2)c2cccc(F)c2)cc1F (configuration not stated)", "Numeric value": 7.31}
{"Compound": "CC1CCN(c2nc(C(F)(F)F)ccc2CNC(=O)C(Cc2ccc(F)cc2)c2ccc(NS(C)(=O)=O)c(F)c2)CC1 (configuration not stated)", "Numeric value": 7.31}
{"Compound": "Cc1cccc(C(C(=O)NCc2ccc(C(F)(F)F)nc2SC2CCCCC2)c2ccc(NS(C)(=O)=O)c(F)c2)c1 (configuration not stated)", "Numeric value": 7.25}
{"Compound": "Cc1ccc(C(C(=O)NCc2ccc(C(F)(F)F)nc2SC2CCCCC2)c2ccc(NS(C)(=O)=O)c(F)c2)cc1 (configuration not stated)", "Numeric value": 8.12}
{"Compound": "CC1CCN(c2nc(C(F)(F)F)ccc2CNC(=O)C(Cc2ccccc2)c2ccc(NS(C)(=O)=O)c(F)c2)CC1 (configuration not stated)", "Numeric value": 7.18}
{"Compound": "CS(=O)(=O)Nc1ccc(C(C(=O)NCc2ccc(C(F)(F)F)nc2SC2CCCCC2)c2ccc(F)cc2)cc1F (configuration not stated)", "Numeric value": 7.42}
{"Compound": "Cc1ccc(CC(C(=O)NCc2ccc(C(F)(F)F)nc2SC2CCCCC2)c2ccc(NS(C)(=O)=O)c(F)c2)cc1 (configuration not stated)", "Numeric value": 7.39}
